Assay procedure: Solubility of COR005 acetate in aqueous media with additives at 25° C.
Type: physicochemical
Condition label: lactic acid buffer pH 4.0, isotonic, pH 4, Lactic acid buffer pH 4.0 Isotonic; MAN:PEP 20:1, HPB:PEP 15:1; Est. = estimated by UV-Vis; read-out: Solubility of COR005 Acetate (mg/ml) at 25° C.

Molecule | solubility [mg/mL]
C[C@@H](O)[C@@H]1NC(=O)[C@H](CCCCN)NC(=O)[C@@H](Cc2c[nH]c3ccccc23)NC(=O)[C@H](Cc2c[nH]c3ccccc23)NC(=O)[C@H](Cc2ccccc2)NC(=O)CCCNC(=O)CCCN(CC(N)=O)C(=O)[C@H](Cc2ccccc2)NC1=O [Veldoreotide Acetate] | 500

----------
Assay procedure: Pharmacokinetics of IR formulations in minipigs
Assay type: in vivo
Condition label: minipig, plasma, sc, 0.4 mg/kg, IR, SC, 0.4 mg/Kg; HPB:PEP 15:1 saline

Molecule | Cmax / ng/mL
C[C@@H](O)[C@@H]1NC(=O)[C@H](CCCCN)NC(=O)[C@@H](Cc2c[nH]c3ccccc23)NC(=O)[C@H](Cc2c[nH]c3ccccc23)NC(=O)[C@H](Cc2ccccc2)NC(=O)CCCNC(=O)CCCN(CC(N)=O)C(=O)[C@H](Cc2ccccc2)NC1=O [Veldoreotide] | 255

----------
Assay procedure: in vivo
Design: species or system rats
Condition label: HSD:Sprague Dawley SD, rat, sc, 3 mg/kg, pH 4, Rats Cmax (ng/ml)

Compound | Cmax / µg/mL
C[C@@H](O)[C@@H]1NC(=O)[C@H](CCCCN)NC(=O)[C@@H](Cc2c[nH]c3ccccc23)NC(=O)[C@H](Cc2c[nH]c3ccccc23)NC(=O)[C@H](Cc2ccccc2)NC(=O)CCCNC(=O)CCCN(CC(N)=O)C(=O)[C@H](Cc2ccccc2)NC1=O [Veldoreotide] | 0.345

----------
Assay procedure: Solubility screening of veldoreotide acetate (10 mg, incremental volumes of medium, USP definition)
Type: physicochemical
Condition label: double distilled water, 0.1 ml Freely soluble (0.1 g/ml), 10 mg in DDW (Double distilled water)
Observation type: solubility

Molecule | Result
C[C@@H](O)[C@@H]1NC(=O)[C@H](CCCCN)NC(=O)[C@@H](Cc2c[nH]c3ccccc23)NC(=O)[C@H](Cc2c[nH]c3ccccc23)NC(=O)[C@H](Cc2ccccc2)NC(=O)CCCNC(=O)CCCN(CC(N)=O)C(=O)[C@H](Cc2ccccc2)NC1=O [Veldoreotide Acetate] | > 100 mg/mL

----------
Assay procedure: Solubility screening of veldoreotide acetate (10 mg, incremental volumes of medium, USP definition)
Assay type: physicochemical
Condition label: Saline (USP) (0.9% NaCl), pH 4.5, 10 mg in Saline (USP) (0.9% NaCl) pH 4.5; read-out: 0.5 ml Soluble (0.02 g/ml; 20 mg/ml)
Source text: The solubility of veldoreotide acetate in aqueous media was screened by the following method. […] Following the results of the screening studies, several media were selected for verification studies based on quantitative assessment of the peptide concentration by HPLC (maximal solubility). […]
Observation type: solubility

Molecule | Result
C[C@@H](O)[C@@H]1NC(=O)[C@H](CCCCN)NC(=O)[C@@H](Cc2c[nH]c3ccccc23)NC(=O)[C@H](Cc2c[nH]c3ccccc23)NC(=O)[C@H](Cc2ccccc2)NC(=O)CCCNC(=O)CCCN(CC(N)=O)C(=O)[C@H](Cc2ccccc2)NC1=O [Veldoreotide Acetate] | < 20 mg/mL
